Biological target: Proto-oncogene tyrosine-protein kinase Src (Homo sapiens) (UniProt P12931)
Sequence (P12931 2-536 limits assumed): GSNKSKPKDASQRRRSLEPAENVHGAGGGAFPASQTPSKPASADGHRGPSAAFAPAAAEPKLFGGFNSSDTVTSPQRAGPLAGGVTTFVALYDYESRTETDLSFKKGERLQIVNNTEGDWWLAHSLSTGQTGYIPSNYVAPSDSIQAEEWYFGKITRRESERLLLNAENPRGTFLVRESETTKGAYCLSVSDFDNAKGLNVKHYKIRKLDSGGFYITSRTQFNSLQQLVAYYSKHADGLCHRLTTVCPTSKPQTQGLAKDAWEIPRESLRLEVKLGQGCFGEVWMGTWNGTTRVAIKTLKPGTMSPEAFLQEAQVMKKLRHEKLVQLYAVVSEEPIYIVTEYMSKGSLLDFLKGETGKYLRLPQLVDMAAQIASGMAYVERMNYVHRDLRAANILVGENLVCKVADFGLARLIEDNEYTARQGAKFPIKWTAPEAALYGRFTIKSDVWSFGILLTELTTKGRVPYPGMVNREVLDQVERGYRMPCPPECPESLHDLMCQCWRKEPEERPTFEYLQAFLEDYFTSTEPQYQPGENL
Settings: at 10 µM
Respond with YES for residual activity values of 40% and above, NO for values below.

| compound | discrete_label |
| --- | --- |
| NCCNc1ncc(C(N)=O)c(Nc2cccc(C(F)(F)F)c2)n1 | YES |
| COc1ccc(CNC(=O)Nc2ncc([N+](=O)[O-])s2)cc1 | NO |
| O=c1c(-c2ccc(F)cc2)c(-c2ccncc2)[nH]n1-c1ccc(Cl)cc1 | YES |
| Nc1ncnc2c1c(-c1ccc(Oc3ccccc3)cc1)cn2C1CCCC1 | NO |
| O=C(c1cc2cc(O)ccc2[nH]1)c1cc2cc(O)ccc2[nH]1 | NO |
| COc1cc2c(cc1OC)-c1n[nH]c(Nc3cccc(F)c3)c1C2 | NO |
| O=C(O)/C=C/c1cc(Br)c(Br)c(Br)c1Br | YES |
| O=C1Cc2c([nH]c3ccc([N+](=O)[O-])cc23)-c2ccccc2N1 | NO |
| O=C(NC(NC(=S)Nc1ccc(F)c([N+](=O)[O-])c1)C(Cl)(Cl)Cl)C(c1ccccc1)c1ccccc1 (stereo not given) | YES |
| Cn1c2ccccc2c2c3c(c4c5ccccc5n(CCC#N)c4c21)CNC3=O | YES |

====

Entries and their residual activity
Molecular target: Cyclin-dependent kinase 7/ cyclin H (Homo sapiens) (UniProt P51946+P50613)
Settings: at 10 µM

| line_notation | target_system | unit_symbol | residual activity |
| --- | --- | --- | --- |
| Cc1cc(C)c(/C=C2\C(=O)Nc3ccccc32)[nH]1 | Cyclin-dependent kinase 7/ cyclin H (Homo sapiens) (UniProt P51946+P50613) | % | 32 |
| O=C(CCCc1ccc(-c2ccccc2F)cc1)Nc1ccc(O)cc1 | Cyclin-dependent kinase 7/ cyclin H (Homo sapiens) (UniProt P51946+P50613) | % | 105 |
| O=C1C(Cl)=C(N2C(=O)CCC2=O)C(=O)c2ccccc21 | Cyclin-dependent kinase 7/ cyclin H (Homo sapiens) (UniProt P51946+P50613) | % | 89 |
| COc1cc2c(cc1OC)-c1n[nH]c(Nc3cccc(F)c3)c1C2 | Cyclin-dependent kinase 7/ cyclin H (Homo sapiens) (UniProt P51946+P50613) | % | 75 |
| O=C(O)/C=C/c1cc(Br)c(Br)c(Br)c1Br | Cyclin-dependent kinase 7/ cyclin H (Homo sapiens) (UniProt P51946+P50613) | % | 89 |
| Nc1ncnc2c1c(-c1ccc(Oc3ccccc3)cc1)cn2C1CCCC1 | Cyclin-dependent kinase 7/ cyclin H (Homo sapiens) (UniProt P51946+P50613) | % | 95 |

====

Molecular target: RAC-gamma serine/threonine-protein kinase (Homo sapiens) (UniProt Q9Y243)
Sequence (Q9Y243 whole entry): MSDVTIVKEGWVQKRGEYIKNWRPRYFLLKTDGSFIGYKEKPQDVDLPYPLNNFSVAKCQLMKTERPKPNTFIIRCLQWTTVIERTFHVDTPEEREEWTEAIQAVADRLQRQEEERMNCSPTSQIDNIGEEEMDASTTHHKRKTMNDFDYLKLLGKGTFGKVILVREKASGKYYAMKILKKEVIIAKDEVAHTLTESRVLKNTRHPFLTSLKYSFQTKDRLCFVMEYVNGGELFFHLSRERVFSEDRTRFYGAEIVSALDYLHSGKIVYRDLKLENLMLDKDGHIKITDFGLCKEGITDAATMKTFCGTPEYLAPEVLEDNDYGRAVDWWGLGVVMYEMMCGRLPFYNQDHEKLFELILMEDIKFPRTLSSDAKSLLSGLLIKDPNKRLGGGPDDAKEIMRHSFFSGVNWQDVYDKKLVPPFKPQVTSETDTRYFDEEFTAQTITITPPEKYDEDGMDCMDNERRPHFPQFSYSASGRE
Details: at 10 µM
Categorize each record by its residual activity using lower bin (below 60%), middle bin (60% to below 80%), upper bin (80% or more)

| compound | discrete_label |
| --- | --- |
| O=C1NC(=O)c2c1c1c3ccccc3[nH]c1n1cncc21 | middle bin |
| O=C1NC(=O)C(c2cn(CCCn3ccnc3)c3ccccc23)=C1Nc1ccccc1 | lower bin |
| O=C1NC(=O)C(c2c[nH]c3ccccc23)=C1c1c[nH]c2ccccc12 | lower bin |
| NC(=O)Nc1sc(-c2ccc(F)cc2)cc1C(N)=O | lower bin |
| COc1cc2nccc(Oc3ccc(NC(=S)NC(=O)c4ccccc4C)cc3)c2cc1OC | middle bin |
| O=S(=O)(NCCNC/C=C/c1ccc(Br)cc1)c1cccc2cnccc12 | lower bin |
| CC(C)(C)c1nc2c3ccc(F)cc3c3c(=O)[nH]ccc3c2[nH]1 | middle bin |
| O=C1NC(=O)C(c2cn(CCCO)c3ncccc23)=C1c1cnccn1 | upper bin |
| NCCNc1ncc(C(N)=O)c(Nc2cccc(C(F)(F)F)c2)n1 | lower bin |
| CC(C)c1nn(-c2c(Cl)cccc2Cl)c2nc(Cc3ccc(OCCO)cc3)[nH]c(=O)c12 | upper bin |
| O=C(CCCc1ccc(-c2ccccc2F)cc1)Nc1ccc(O)cc1 | upper bin |
| Cn1sc(=O)n(Cc2ccccc2)c1=O | upper bin |
| CCCC(=O)Oc1ccc2[nH]c(C(=O)c3cc4ccccc4[nH]3)cc2c1 | upper bin |
| N#C/C(=C1/Nc2ccccc2S1)c1ccnc(NCCc2cccnc2)n1 | lower bin |
| Nc1ncnc2[nH]nc(Nc3ccc(F)cc3)c12 | middle bin |
| CCN(CC)CCNC(=O)c1c(C)[nH]c(/C=C2\C(=O)Nc3ccc(Cl)cc32)c1C | lower bin |
| N#C/C(=C\c1ccc(O)c(O)c1)C(=O)NCc1ccccc1 | upper bin |
| O=C(NC(NC(=S)Nc1ccc(F)c([N+](=O)[O-])c1)C(Cl)(Cl)Cl)C(c1ccccc1)c1ccccc1 (stereo not drawn) | middle bin |
| O=C(Nc1nc2ccccc2n1CCN1CCOCC1)c1cccc([N+](=O)[O-])c1 | upper bin |
| COc1ccc2c(c1)c(C1=C(c3c[nH]c4ccccc34)C(=O)NC1=O)cn2CCCN(C)C | lower bin |

====

Biological target: Serine/threonine-protein kinase D1 (Homo sapiens)
Conditions: at 10 µM
One threshold, 20%, splits the recorded residual activity values: lower ones are YES, equal or higher ones are NO.

| line_notation | target_system | discrete_label |
| --- | --- | --- |
| COc1ccc(Cl)cc1NC(=O)Nc1cc(C)nc2ccccc12 | Serine/threonine-protein kinase D1 (Homo sapiens) | NO |
| COc1ccc2c(c1)c(C1=C(c3c[nH]c4ccccc34)C(=O)NC1=O)cn2CCCN(C)C | Serine/threonine-protein kinase D1 (Homo sapiens) | NO |
| COc1cc2ncnc(Nc3cccc(Cl)c3)c2cc1OC | Serine/threonine-protein kinase D1 (Homo sapiens) | NO |
| CCCCc1c(-c2ccc(O)cc2)[nH]c2nccnc12 | Serine/threonine-protein kinase D1 (Homo sapiens) | NO |
| O=C1Nc2ccccc2/C1=C\c1c(Cl)[nH]c2ccccc12 | Serine/threonine-protein kinase D1 (Homo sapiens) | NO |
| CCN1/C(=C/C(C)=O)Sc2ccc(OC)cc21 | Serine/threonine-protein kinase D1 (Homo sapiens) | YES |
| Nc1nc(Nc2ccc(S(N)(=O)=O)cc2)nn1C(=O)c1c(F)cccc1F | Serine/threonine-protein kinase D1 (Homo sapiens) | YES |

====

Molecular target: Inhibitor of nuclear factor kappa-B kinase subunit beta (Homo sapiens) (UniProt O14920)
Sequence (whole entry): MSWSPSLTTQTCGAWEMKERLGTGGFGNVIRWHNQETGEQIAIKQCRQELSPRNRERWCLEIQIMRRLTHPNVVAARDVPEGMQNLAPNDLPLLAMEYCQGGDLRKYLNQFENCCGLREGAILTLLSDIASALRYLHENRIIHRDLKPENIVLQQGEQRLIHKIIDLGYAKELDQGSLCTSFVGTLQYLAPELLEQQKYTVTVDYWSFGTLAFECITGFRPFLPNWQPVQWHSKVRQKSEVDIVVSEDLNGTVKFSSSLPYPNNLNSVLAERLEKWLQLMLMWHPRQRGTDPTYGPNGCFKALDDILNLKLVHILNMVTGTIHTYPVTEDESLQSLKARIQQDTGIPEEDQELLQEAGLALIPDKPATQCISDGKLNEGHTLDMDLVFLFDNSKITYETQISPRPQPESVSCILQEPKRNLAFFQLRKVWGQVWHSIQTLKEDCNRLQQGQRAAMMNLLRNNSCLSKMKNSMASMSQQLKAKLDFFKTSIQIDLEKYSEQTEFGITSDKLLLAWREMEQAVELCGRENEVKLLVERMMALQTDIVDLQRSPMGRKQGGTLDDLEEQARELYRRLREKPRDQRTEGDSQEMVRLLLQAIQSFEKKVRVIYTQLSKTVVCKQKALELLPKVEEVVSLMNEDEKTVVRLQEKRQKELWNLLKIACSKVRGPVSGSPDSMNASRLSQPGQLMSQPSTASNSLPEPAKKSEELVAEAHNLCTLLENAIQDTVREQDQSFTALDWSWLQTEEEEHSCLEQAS
Details: at 10 µM
property_measured: residual activity (%)

| line_notation | value |
| --- | --- |
| CCCCc1c(-c2ccc(OC)cc2)[nH]c2nccnc12 | 101 |
| N#Cc1c(NC(=O)c2cccc3ccccc23)sc2c1CCCC2 | 100 |
| O=c1cc(N2CCNCC2)oc2c(-c3ccccc3)cccc12 | 82 |
| CC(C)(C)n1nc(Cc2cccc3ccccc23)c2c(N)ncnc21 | 92 |
| O=S(=O)(NCCNC/C=C/c1ccc(Br)cc1)c1cccc2cnccc12 | 100 |
| COc1cc2nccc(Oc3ccc(NC(=O)Nc4cc(C)on4)c(Cl)c3)c2cc1OC | 102 |

====

Biological target: Activated CDC42 kinase 1 (Homo sapiens)
Conditions: at 1 µM
Entries and their residual activity

| compound | target_system | residual activity, % |
| --- | --- | --- |
| O=c1cc(N2CCOCC2)oc2c1ccc1ccccc12 | Activated CDC42 kinase 1 (Homo sapiens) | 90 |
| CSc1nc(-c2ccc(F)cc2)c(-c2ccnc(NC(C)c3ccccc3)c2)[nH]1 (stereo not drawn) | Activated CDC42 kinase 1 (Homo sapiens) | 90 |
| N#C/C(=C\c1ccc(O)c(O)c1)C(=O)NCc1ccccc1 | Activated CDC42 kinase 1 (Homo sapiens) | 88 |
| CCOc1nc(NC(=O)Cc2cc(OC)ccc2OC)cc(N)c1C#N | Activated CDC42 kinase 1 (Homo sapiens) | 73 |
| CC(C)(C)c1nc2c3ccc(F)cc3c3c(=O)[nH]ccc3c2[nH]1 | Activated CDC42 kinase 1 (Homo sapiens) | 10 |
| Cn1c2ccccc2c2c3c(c4c5ccccc5n(CCC#N)c4c21)CNC3=O | Activated CDC42 kinase 1 (Homo sapiens) | 3 |
| CCN1/C(=C/C(C)=O)Sc2ccc(OC)cc21 | Activated CDC42 kinase 1 (Homo sapiens) | 81 |
| O=C1Nc2ccccc2/C1=C\c1c(Cl)[nH]c2ccccc12 | Activated CDC42 kinase 1 (Homo sapiens) | 84 |
